The values you see were collected from PubChem BioAssay (NCI).

system: MALME-3M melanoma; assay: NCI-60 one-dose screen, 48 h (100 = growth as untreated, 0 = no growth, -100 = all killed); conditions: 10 µM unless noted
The panel holds about 83,000 compounds, 20% with a hit somewhere; the sample as a whole holds those more often.
growth overview
Use % as the unit, but write only the number.

Some entries whose results are on file:
C#CCOc1cccc(-c2ncnc3cc(NC(=O)C=C)ccc23)c1
60.5
O=C(/C=C/C12c3ccccc3C(c3ccccc31)C1C(=O)NC(=O)C12)c1ccc(Br)cc1 (stereo not given)
80.5
FC(F)(F)c1ccc(Cn2cc(CSc3nc4ccccc4s3)nn2)cc1
111
CC[N+]1(CC)CC[N+]2(CCCC(C)CC2)CC1 (stereo not given)
97.6
COc1ccc2c(c1)c(-c1nc(-c3c[nH]c4ncccc34)cs1)cn2CCO
75.9

# query: growth | item N#Cc1ccc(O)c(C2=NCC(Cc3ccccc3)O2)c1 (stereo not given) | system: MALME-3M melanoma
64.3

Give recorded growth with MALME-3M melanoma for the following compound: Cc1ccc(C(=O)Nc2cccc(C#Cc3cccc4[nH]nc(N)c34)c2)cc1C(F)(F)F
6.04

* * *

tested on: T-47D breast; experiment: NCI-60 one-dose screen, 48 h (100 = growth as untreated, 0 = no growth, -100 = all killed); settings: 10 µM unless noted
Compounds without any hit were thinned out: in the full panel of roughly 83,000, 20% have a hit.
Recorded measurements of growth, one per entry
The reply should be a number in %, with the unit left off.

Worked cases, answers included:
O=C1/C(=C/c2ccccc2F)CN(C(=O)C(Cl)Cl)C/C1=C\c1ccccc1F
-7.38
Clc1ccccc1-c1cnn2cc(-c3ccccc3)cnc12
78.9
c1ccc2c(c1)CCCc1nnc3nc4ccccc4n3c1-2
31.7
CCN(CC)c1ccc(CNc2cc(C)nc3ccccc23)cc1
39
O=C(O)[C@@H](Cc1ccc2ccccc2c1)NC(=O)n1c2ccccc2c2ccccc21
70.7

Moving on to another compound below.
# growth lookup, item Cc1ccc(C2CC(c3nc(-c4ccc(Cl)cc4)oc3C)=NN2C(=O)c2ccncc2)cc1 (stereo not given)
77.7

* * *

test system: SF-268 CNS; test: NCI-60 one-dose screen, 48 h (100 = growth as untreated, 0 = no growth, -100 = all killed); details: 10 µM unless noted
The panel holds about 83,000 compounds, 20% with a hit somewhere; the sample as a whole holds those more often.
OUTCOME MEASURE: growth (%)
Respond numerically; units are % and should not be typed.

CCOC(=O)CC1CSC(Nc2ccccc2)=N1 (centres undefined)
98.7
Cc1ccc(CNc2ccc3nc(CCC(C)C)[nH]c3c2)cc1
91.2
COC(=O)c1ccc(NC(=O)Nc2ccc(C(=O)OC)cc2)cc1
115
CCC1S/C(=N\N=C(\C)c2cc3cc(Cl)ccc3o2)N(c2ccccc2)C1=O (centres undefined)
108
COc1ccc(/C=C/c2ccc3ccccc3n2)c(OC)c1
98.7
COc1ccc(Oc2nc(Nc3ccc(N4CCOCC4)cc3)ncc2NC(=O)Nc2cc(OC)cc(OC)c2)cc1
34.3

What does the data say about its growth? Entry: C#Cc1cccc(Nc2nc(C)nc3cc(NC(=O)CCl)ccc23)c1
-67.2

Value lookup for growth; key = CCOC(=O)c1cc(C(=O)c2cc(OC)c(OC)c(OC)c2)n2ccccc12
55.7

Report growth for C=CCC(CCCC)(C(=O)OCC)C(=O)OCC please.
113

Consider the molecule Cc1ccc(-c2nc3nc(-c4ccccc4)nc(N4CCCN(S(C)(=O)=O)CC4)c3o2)cc1 and give its measured growth.
76

Name the reported growth value associated with the molecule NC(=O)c1c(NC(=O)c2cccc(C(F)(F)F)c2)sc2c1CCC(=O)C2
19

Dear colleague, I am looking for the recorded growth of the following molecule: O=C1/C(=C/c2ccccc2F)CN(C(=O)C(Cl)Cl)C/C1=C\c1ccccc1F
-0.301

What measured growth goes with COc1ccc(Cn2cc3c(c2-c2ccccc2)CCc2cnoc2-3)cc1 ?
16

Consider the molecule shown here: CCOc1c(OC)cc2c(c1O)C(=O)N[C@@H]1[C@@H](O)[C@@H](O)[C@H](O)C[C@@H]21 What is its recorded growth?
102

So what's the measured growth for this one? C=C(CNCCc1ccc(O)cc1)[C@@H]1CC[C@]2(CO)CC[C@]3(C)[C@H](CC[C@@H]4[C@@]5(C)CCC(=O)C(C)(C)[C@@H]5CC[C@]43C)[C@@H]12
45.9

Reported growth for COc1ccccc1N(C(C)=O)C1=C(Cl)C(=O)c2ccccc2C1=O : what is it?
30.1

Any idea what its growth is? The molecule is CCN1CCN(CC(=O)Nc2ccc(-c3cn4c(n3)sc3cc(Oc5ccnc(C(=O)NC)c5)ccc34)cc2)CC1
87.2

* * *

test system: OVCAR-4 ovarian; assay: NCI-60 one-dose screen, 48 h; conditions: 10 µM unless noted
About 83,000 compounds went through this panel and 20% of them were active in at least one assay; those are over-represented in the sample as a whole. The source made the active and inactive calls. How the source made its calls: active means growth percent below 10; inactive means the rest.
Classes to choose from: True (active), False (inactive)

// known answers, use as guide
Cc1nn(-c2cc(NC3CCC(O)CC3)c3c(=O)[nH]c(CCC(F)(F)F)cc3c2)c2c1C(=O)CC(C)(C)C2 (centres undefined)
False
CCCn1nc(C(=O)N(C)Cc2ccccc2)c2c1CCC(N1CCc3ccccc31)C2 (centres undefined)
False

Query: recorded result category for CCOC(=O)c1[nH]c2c(c1C)-c1[nH]c(=O)c(S(=O)(=O)c3ccccc3)cc1SC2 in this test
True

Assay result, entry COc1ccc(/C=C/C(=O)c2ccc(NC(=O)CSc3nc4c([nH]3)c(=O)n(C)c(=O)n4C)cc2)cc1OC — outcome?
False

For this compound, state the assay outcome: CC1C(/C=N/NC(N)=S)C(C#N)(C#N)C1(C#N)C#N (centres undefined)
False

GET /call?item= C[n+]1ccc(CCc2c[nH]c3ccccc23)cc1 returns the recorded outcome of this test.
False

Entry CCN1CCN(c2cc(C)nc(N(CCNc3ccnc4cc(Cl)ccc34)Cc3ccc4c(c3)OCO4)n2)CC1 : call = ?
False

How was CCN(CC)c1ccc(/C=N/NC(=O)Cc2ccc(Nc3ccnc(C(F)(F)F)c3)cc2)c(O)c1 classified in this test?
False

# lookup: test call for CCOC(=O)c1c(C)nc2c(c1N)/C(=C/c1ccc(OC)cc1)C(=O)N2Cc1ccccc1
False

* * *

test system: HCT-116 colon; assay: NCI-60 one-dose screen, 48 h; settings: 10 µM unless noted
About 83,000 compounds went through this panel and 20% of them were active in at least one assay; those are over-represented in the sample as a whole. The source made the active and inactive calls. How the source made its calls: active means growth percent below 10; inactive means the rest.
Outcome field: choose from class 1 = active, class 0 = inactive

The examples below pair each entry with its known result.
CCN1C(=O)N(CC)C2C1NN=c1s/c(=C\c3ccc[nH]3)c(=O)n12 (centres undefined)
class 0
COc1cc2c(cc1OCCCCN1CCN(C(=S)SCCC(C#N)(c3ccccc3)c3ccccc3)CC1)N=C[C@@H]1CCCN1C2=O
class 1
CCOC(=O)C(Cc1ccc(OC)cc1)C(=O)OCC
class 0
Cc1ccc(-c2nc(/C=C3/C(=O)Nc4ccc(F)cc43)c3ccccn23)cc1
class 0

Would you mind telling me which call this test gave CCCn1cnc2c(c1=N)C(c1ccc(F)cc1)c1sc3c(F)cccc3c1O2 (centres undefined) ?
class 0

Fill in: this test's call for CC1(C)NCCC[C@]2(C)[C@H]3CC[C@H]4[C@H]5[C@H](C(=O)/C=C/c6cccnc6)CCC[C@]5(CO)CC[C@@]4(C)[C@]3(C)CC[C@@H]12 is ___
class 0

Short answer needed: outcome of this test for CN(C)c1ccc(-c2nc(-c3ccccc3)c(-c3ccccc3)[nH]2)cc1 ?
class 0

Per the assay record, what outcome was assigned to Cc1ccc2nc(NC(=O)CSc3nc(-c4ccccc4)c(C#N)c4nnnn34)sc2c1 ?
class 0

Could you check what this test reported for NS(=O)(=O)c1ccc(C(=O)NN2C(=O)c3c(Br)c(Br)c(Br)c(Br)c3C2=O)cc1 ?
class 0

* * *

test system: SF-268 CNS; test: NCI-60 one-dose screen, 48 h (100 = growth as untreated, 0 = no growth, -100 = all killed); settings: 10 µM unless noted
About 83,000 compounds went through this panel and 20% of them were active in at least one assay; those are over-represented in the sample as a whole. The source made the active and inactive calls. How the source made its calls: active means growth percent below 10; inactive means the rest.
# growth listing for each entry below

// solved cases for growth follow
C#COc1cccc(Nc2ncnc3cc(NC(=O)[C@@H](C)Cl)ccc23)c1
21.6% [6.25 µM] (inactive)
COc1cc(OC)c(C(=O)C(CN(C)C)CN(C)C)cc1OC
99.1% (inactive)
Cc1ccc2c(-c3nnc(N)s3)cc(=O)oc2c1C
102% (inactive)
Cc1ccc(NC(=O)Cn2c(Br)nc3c2c(=O)n(C)c(=O)n3C)cc1
56.1% (inactive)
CO[C@H](C(=O)[C@@H](O)[C@@H](C)O)[C@@H]1Cc2cc3cc(O[C@H]4C[C@@H](O[C@H]5C[C@@H](O)[C@H](O)C(C)O5)[C@H](O)C(C)(O)O4)cc(O)c3c(O)c2C(=O)[C@H]1O[C@H]1C[C@@H](O[C@H]2C[C@@H](O[C@H]3C[C@@H](OC)[C@H](O)C(C)O3)[C@@H](O)C(C)O2)[C@H](O)C(C)O1 (some centres undefined)
34.8% (inactive)
CSc1nn2c(-c3ccc4ccccc4c3)ccnc2c1C#N
45.3% (inactive)

What growth value was documented for this molecule, NC1(CO)COC(c2ccccc2)OC1 (centres undefined) ?
110% (inactive)

Consider the molecule CC1=C(C(=O)Nc2ccccc2)C(c2ccc3c(c2)OCO3)NC(=S)N1 (centres undefined) and give its measured growth.
106% (inactive)

Quick check: growth of Nn1c(=O)c(=O)[nH]c2c(cnn2-c2ccccc2)c1=O ?
99.7% (inactive)
